Target: T1, matriptase (#3946-SE-010, R&D Systems) (UniProt Q9Y5Y6 615-855)
T1 sequence (looked up): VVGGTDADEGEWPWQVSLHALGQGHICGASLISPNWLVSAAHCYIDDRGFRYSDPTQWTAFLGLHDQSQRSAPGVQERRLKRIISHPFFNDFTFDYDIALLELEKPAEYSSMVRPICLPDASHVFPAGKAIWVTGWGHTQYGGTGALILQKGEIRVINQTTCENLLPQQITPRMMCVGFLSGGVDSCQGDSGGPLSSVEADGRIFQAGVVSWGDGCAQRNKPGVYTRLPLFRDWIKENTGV
Assay: cell-based or functional assay
Positions of bridges follow the written chain, without caps; N, C: chain ends. kbt = C-terminal Arg ketobenzothiazole
Attribute measured: Matriptase IC50 (nM)
Numbers only, in nM.

Binder | Attribute measured | Endpoint unit | Reported result
Ac-KQLR-kbt [Ac-KQLR-kbt, ZFH7006] | Matriptase IC50 | nM | 1.1
Ac-WLFR-kbt [Ac-WLFR-kbt, ZFH7064] | Matriptase IC50 | nM | 12

# input Value lookup for Matriptase IC50; key = Ac-DMKR-kbt (lactam 1-3; not fully specified; printed as Cyclo(DMK)R-kbt; also: N-terminal acetyl described as 6-acetamido) [Cyclo(DMK)R-kbt, VD3173]
# output 1
